assay_notes: kinetic analysis, non-endpoint assay at 23° C.
Assay type: biochemical
condition_notes: 23° C.; purified His-tagged protein; standard error in parenthetical; read-out: Km Quizalofop
observable: Km

[Q] What measured Km goes with MON-HT7: engineered oxygenase protein, amino acid sequence SEQ ID NO:34 (protein) MHAALTPLTNKYRFIDVQPLTGVLGAEITGVDLREPLDDSTWNEILDAFHTYQVIYFPGQAITNEQHIAFSRRFGPVDPVPLLKSIEGYPEVQMIRREANESGRVIGDDWHADSTFLDAPPAAVVMRAIEVPEYGGDTGFLSMYSAWETLSPTMQATIEGLNVVHSATKVFGSLYQATNWRFSNTSVKVMDVDAGDRETVHPLVVTHPVTGRRALYCNQVYCQKIQGMTDAESKSLLQFLYEHATKFDFTCRVRWKKDQVLVWDNLCTMHRSVPDYAGKFRYLTRTTVAGDKPSR ?
[A] 330 µM
